test system: A498 renal; test: NCI tumour cell line growth inhibition, 48 h
Answer each item with its documented TGI.

Consider the compound shown here: C[C@H]1[C@H](C)CC[C@]2(C)CC[C@]3(C)C(=C[C@@H](O)[C@@H]4[C@@]5(C)[C@H](O)[C@@H](O)[C@H](O)C(C)(C)[C@@H]5CC[C@]43C)[C@H]12 What is its recorded TGI?
> 100 µM

Consider the compound shown here: COC(CN(C(=O)c1ccccc1)C1CCC2(SCCS2)c2[nH]c3ccccc3c21)OC (stereo not given) What is its recorded TGI?
> 100 µM

Consider the compound shown here: CCOC(=O)C1N(S(=O)(=O)c2ccc(C)cc2)CCC12C(c1ccc(OC)cc1)NC1CCCCC12 (stereo not given) What is its recorded TGI?
> 100 µM

Consider the compound shown here: CN(Nc1cc(=O)[nH]c(=O)[nH]1)c1ccccc1 What is its recorded TGI?
> 100 µM

Consider the compound shown here: Clc1ccc(Cl)c(Nc2ccnc(SCc3ccccc3)n2)c1 What is its recorded TGI?
> 100 µM
